ASSAY_SYSTEM: UniProtKB P79208
Sequence (P79208 17-603): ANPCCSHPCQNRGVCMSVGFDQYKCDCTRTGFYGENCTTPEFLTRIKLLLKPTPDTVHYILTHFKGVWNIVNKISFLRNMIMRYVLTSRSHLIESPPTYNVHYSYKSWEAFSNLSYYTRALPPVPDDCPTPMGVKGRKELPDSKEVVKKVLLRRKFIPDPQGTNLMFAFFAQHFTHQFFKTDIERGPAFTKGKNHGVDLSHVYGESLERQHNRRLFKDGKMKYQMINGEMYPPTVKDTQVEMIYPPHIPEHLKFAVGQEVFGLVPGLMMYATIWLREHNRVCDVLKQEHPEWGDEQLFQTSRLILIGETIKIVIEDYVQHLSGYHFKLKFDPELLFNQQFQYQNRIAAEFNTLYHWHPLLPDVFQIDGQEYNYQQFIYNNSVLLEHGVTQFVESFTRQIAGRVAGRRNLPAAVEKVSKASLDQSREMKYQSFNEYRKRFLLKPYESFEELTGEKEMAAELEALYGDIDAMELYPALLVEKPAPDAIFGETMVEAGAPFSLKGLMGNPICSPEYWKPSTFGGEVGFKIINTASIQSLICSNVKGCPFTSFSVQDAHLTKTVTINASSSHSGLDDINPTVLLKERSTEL

| SMILES_CODE | UNITS_SYMBOL | IC50 |
| --- | --- | --- |
| C=C(C)[C@@H](CC=C(C)C)C[C@@]12C[C@@H](CC=C(C)C)C(C)(C)[C@@](CC=C(C)C)(C(=O)C(C(=O)c3ccc(O)c(O)c3)=C1O)C2=O | µM | 36.5 |

---

ASSAY_SYSTEM: COX-1 (Ovis aries, UniProt P05979)
Sequence (P05979 25-600): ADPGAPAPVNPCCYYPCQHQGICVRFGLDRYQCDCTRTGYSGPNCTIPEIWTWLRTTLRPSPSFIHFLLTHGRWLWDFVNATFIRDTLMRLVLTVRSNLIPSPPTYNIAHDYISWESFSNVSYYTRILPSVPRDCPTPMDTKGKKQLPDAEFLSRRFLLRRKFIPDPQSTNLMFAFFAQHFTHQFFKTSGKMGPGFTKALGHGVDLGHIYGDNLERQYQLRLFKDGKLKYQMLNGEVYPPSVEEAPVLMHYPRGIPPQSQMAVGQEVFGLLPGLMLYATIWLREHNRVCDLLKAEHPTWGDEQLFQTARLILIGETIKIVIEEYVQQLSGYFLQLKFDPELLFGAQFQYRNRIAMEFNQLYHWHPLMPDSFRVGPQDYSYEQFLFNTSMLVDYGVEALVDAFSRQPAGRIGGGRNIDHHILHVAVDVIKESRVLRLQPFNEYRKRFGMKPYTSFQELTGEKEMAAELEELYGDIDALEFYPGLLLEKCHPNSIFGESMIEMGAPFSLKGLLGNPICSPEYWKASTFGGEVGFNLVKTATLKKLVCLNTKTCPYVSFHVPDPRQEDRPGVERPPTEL
pIC50: −log10 of the molar value.

| COMPOUND | ASSAY_SYSTEM | pIC50 |
| --- | --- | --- |
| C=C(C)[C@@H](CC=C(C)C)C[C@@]12C[C@@H](CC=C(C)C)C(C)(C)[C@@](CC=C(C)C)(C(=O)C(C(=O)c3ccc(O)c(O)c3)=C1O)C2=O [Garcinol] | COX-1 (Ovis aries, UniProt P05979) | 3.84 |
